biological target: Tyrosinase (Agaricus bisporus, UniProt O42713); assay: Inhibition of mushroom tyrosinase using L-DOPA as substrate assessed as inhibition constant preincubated with compound for 15 mins by microplate reader analysis
measurement.kind: Ki (µM)
Give a bare numeral; the unit µM is implied.

Fill in reported Ki for this entry: O=P(O)(c1ccccc1)C(NCc1ccccc1)c1ccccn1 (stereo unspecified)
76

###

target: Tyrosinase (Agaricus bisporus, UniProt O42713); assay: Inhibition of mushroom tyrosinase using L-dopa as substrate by spectrophotometric analysis
measurement.kind: IC50 (nM)
Give a bare numeral; the unit nM is implied.

Fill in reported IC50 for this entry: O=C1CSC(c2ccccc2O)N1c1ccc(-c2ccc(N3C(=O)CSC3c3ccccc3O)cc2)cc1 (stereo unspecified)
610

###

molecular target: Tyrosinase (Agaricus bisporus, UniProt O42713); assay: Inhibition of mushroom tyrosinase using L-DOPA as a substrate assessed as inhibition constant incubated for 5 mins by microplate reader analysis
measurement.kind: pKi
pKi (log units): -log10 of the concentration in mol/L.

Given CC1(C)CC(=O)C2=C(C1)Oc1c(oc(CCl)cc1=O)C2c1ccc(F)cc1 (stereo unspecified) , report its pKi on Tyrosinase (Agaricus bisporus, UniProt O42713).
5.40

###

Target: UniProtKB O42713
Sequence (O42713 whole entry): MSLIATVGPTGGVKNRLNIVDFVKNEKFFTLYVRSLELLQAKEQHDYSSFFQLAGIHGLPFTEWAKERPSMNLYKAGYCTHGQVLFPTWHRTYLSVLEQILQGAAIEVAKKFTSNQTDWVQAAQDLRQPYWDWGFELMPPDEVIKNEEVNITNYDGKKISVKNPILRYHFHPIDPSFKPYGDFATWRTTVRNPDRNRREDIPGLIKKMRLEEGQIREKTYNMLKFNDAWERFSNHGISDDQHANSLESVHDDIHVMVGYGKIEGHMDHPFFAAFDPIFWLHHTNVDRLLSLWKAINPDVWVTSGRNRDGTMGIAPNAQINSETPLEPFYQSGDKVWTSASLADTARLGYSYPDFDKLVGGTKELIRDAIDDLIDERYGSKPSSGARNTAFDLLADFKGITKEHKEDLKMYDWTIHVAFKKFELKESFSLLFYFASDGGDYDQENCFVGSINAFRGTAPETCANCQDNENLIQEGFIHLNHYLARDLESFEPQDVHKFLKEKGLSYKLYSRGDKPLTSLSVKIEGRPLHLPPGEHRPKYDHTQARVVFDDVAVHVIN
Experiment: Inhibition of mushroom tyrosinase using L-tyrosine as substrate assessed as […] activity incubated for 20 mins by microplate reader analysis
measurement.kind: pIC50
pIC50 (log units): -log10 of the concentration in mol/L.

Fill in reported pIC50 for this entry: `O=C(/C=C/c1ccc(O)cc1O)c1cccs1`
7.89

###

target: UniProt:O42713; test: Inhibition of mushroom tyrosinase using L-DOPA as substrate preincubated for 10 mins followed by substrate addition measured after 20 mins
measurement.kind: IC50 (µM)
Give a bare numeral; the unit µM is implied.

Fill in reported IC50 for this entry: `Cc1ccc(C(C)C)cc1NC(=O)COC(=O)c1ccc(O)cc1O`
11

###

Target: Tyrosinase (Agaricus bisporus)
Sequence (O42713 whole entry): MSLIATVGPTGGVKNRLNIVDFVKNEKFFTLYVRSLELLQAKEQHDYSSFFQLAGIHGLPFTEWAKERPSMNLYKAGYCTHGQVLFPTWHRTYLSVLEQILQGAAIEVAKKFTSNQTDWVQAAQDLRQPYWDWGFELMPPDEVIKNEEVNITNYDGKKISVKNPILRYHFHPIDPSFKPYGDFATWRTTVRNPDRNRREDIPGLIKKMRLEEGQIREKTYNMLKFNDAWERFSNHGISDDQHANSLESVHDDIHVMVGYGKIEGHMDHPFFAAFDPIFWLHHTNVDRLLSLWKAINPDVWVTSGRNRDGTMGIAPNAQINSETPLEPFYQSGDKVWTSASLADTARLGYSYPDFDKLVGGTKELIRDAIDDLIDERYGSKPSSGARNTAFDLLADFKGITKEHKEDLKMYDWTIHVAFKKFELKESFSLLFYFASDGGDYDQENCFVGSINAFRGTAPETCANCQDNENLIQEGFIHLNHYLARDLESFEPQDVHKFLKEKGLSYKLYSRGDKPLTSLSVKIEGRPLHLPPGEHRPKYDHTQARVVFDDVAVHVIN
Test: Inhibition of mushroom tyrosinase using L-DOPA as substrate preincubated for 10 mins followed by substrate addition measured after 5 mins
measurement.kind: pIC50
pIC50 (log units): -log10 of the concentration in mol/L.

Fill in reported pIC50 for this entry: `CC(=O)Nc1ccc(/N=N/c2c(N)nc(N)nc2Cl)cc1`
4.61

Fill in reported pIC50 for this entry: `Clc1ccc(Cn2cc(COc3ccc(-c4nc5ccccc5[nH]4)cc3)nn2)cc1Cl`
5.03

###

target: Tyrosinase (Agaricus bisporus, UniProt O42713); assay: Inhibition of mushroom tyrosinase using L-DOPA as substrate incubated for 5 mins
Field: IC50. Provide a value for each of the molecules that follow.
Give a bare numeral; the unit µM is implied.

Fill in reported IC50 for this entry: `OC[C@H]1O[C@H](Oc2cc(CCc3ccc(O)cc3O)cc(O[C@H]3O[C@H](CO)[C@@H](O)[C@H](O)[C@H]3O)c2)[C@H](O)[C@@H](O)[C@@H]1O`
12.8

Fill in reported IC50 for this entry: `OC[C@H]1O[C@H](Oc2cc(O)cc(CCc3ccc(O)cc3O)c2)[C@H](O)[C@@H](O)[C@@H]1O`
2.63

###

target: Tyrosinase (Homo sapiens, UniProt P14679); assay: Inhibition of human his tagged tyrosinase expressed in HEK293 cells using L-DOPA as substrate incubated for 10 mins by microtitre plate reader analysis
Sequence (P14679 whole entry): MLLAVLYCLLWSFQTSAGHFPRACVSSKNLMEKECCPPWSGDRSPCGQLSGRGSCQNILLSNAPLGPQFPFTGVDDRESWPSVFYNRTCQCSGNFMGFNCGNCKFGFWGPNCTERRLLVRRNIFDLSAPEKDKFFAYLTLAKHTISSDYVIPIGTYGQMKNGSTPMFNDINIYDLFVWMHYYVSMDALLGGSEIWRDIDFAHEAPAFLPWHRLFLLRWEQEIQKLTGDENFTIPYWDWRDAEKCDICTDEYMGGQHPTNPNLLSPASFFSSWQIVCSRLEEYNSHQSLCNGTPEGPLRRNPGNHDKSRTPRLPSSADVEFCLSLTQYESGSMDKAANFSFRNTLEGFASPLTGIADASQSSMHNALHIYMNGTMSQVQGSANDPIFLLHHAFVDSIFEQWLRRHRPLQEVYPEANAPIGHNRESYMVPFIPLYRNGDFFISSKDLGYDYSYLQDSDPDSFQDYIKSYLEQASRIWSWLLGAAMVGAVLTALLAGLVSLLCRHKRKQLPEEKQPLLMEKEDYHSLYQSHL
measurement.kind: EC50

Fill in reported EC50 for this entry: `Nc1nc(-c2ccc(O)cc2O)cs1`
245 µM

###

Target: Tyrosinase (Agaricus bisporus)
Sequence (O42713 whole entry): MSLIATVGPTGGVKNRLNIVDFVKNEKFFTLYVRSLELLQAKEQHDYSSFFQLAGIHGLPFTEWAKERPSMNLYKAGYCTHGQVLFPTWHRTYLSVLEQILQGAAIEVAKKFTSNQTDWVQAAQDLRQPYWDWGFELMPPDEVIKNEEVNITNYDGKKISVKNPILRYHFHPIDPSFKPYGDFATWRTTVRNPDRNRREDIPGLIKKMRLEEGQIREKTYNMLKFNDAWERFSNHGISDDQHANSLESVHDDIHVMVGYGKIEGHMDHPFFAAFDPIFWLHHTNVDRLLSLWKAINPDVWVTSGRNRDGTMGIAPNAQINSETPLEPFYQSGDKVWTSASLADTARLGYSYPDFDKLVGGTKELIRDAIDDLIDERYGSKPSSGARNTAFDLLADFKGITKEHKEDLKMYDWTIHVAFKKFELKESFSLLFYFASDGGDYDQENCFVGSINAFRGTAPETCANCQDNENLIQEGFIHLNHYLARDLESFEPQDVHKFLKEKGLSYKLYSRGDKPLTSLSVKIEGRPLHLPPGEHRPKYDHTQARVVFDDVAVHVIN
Test: Inhibition of mushroom tyrosinase using L-tyrosine as a substrate incubated for 10 mins
measurement.kind: IC50 (µM)
Give a bare numeral; the unit µM is implied.

Fill in reported IC50 for this entry: `O=C(O)CSc1nnc(NC(=S)Nc2cccc(C(F)(F)F)c2)s1`
15

###

molecular target: Tyrosinase (Agaricus bisporus, UniProt O42713); assay: Inhibition of mushroom tyrosinase using L-tyrosine as substrate assessed as monophenolase activity preincubated for 20 mins followed by substrate addition measured after 10 mins by plate reader analysis
measurement.kind: IC50 (nM)
Give a bare numeral; the unit nM is implied.

Fill in reported IC50 for this entry: `N/C(S)=N/N=C/c1ccc([N+](=O)[O-])cc1`
50

###

molecular target: UniProt:O42713
measurement.kind: pKi
pKi (log units): -log10 of the concentration in mol/L.

Fill in reported pKi for this entry: `CCn1c2ccccc2c2cc(NC(=O)CSc3nc4ccccc4[nH]3)ccc21`
5.79

###

Biological target: Tyrosinase (Agaricus bisporus, UniProt O42713)
Sequence (O42713 whole entry): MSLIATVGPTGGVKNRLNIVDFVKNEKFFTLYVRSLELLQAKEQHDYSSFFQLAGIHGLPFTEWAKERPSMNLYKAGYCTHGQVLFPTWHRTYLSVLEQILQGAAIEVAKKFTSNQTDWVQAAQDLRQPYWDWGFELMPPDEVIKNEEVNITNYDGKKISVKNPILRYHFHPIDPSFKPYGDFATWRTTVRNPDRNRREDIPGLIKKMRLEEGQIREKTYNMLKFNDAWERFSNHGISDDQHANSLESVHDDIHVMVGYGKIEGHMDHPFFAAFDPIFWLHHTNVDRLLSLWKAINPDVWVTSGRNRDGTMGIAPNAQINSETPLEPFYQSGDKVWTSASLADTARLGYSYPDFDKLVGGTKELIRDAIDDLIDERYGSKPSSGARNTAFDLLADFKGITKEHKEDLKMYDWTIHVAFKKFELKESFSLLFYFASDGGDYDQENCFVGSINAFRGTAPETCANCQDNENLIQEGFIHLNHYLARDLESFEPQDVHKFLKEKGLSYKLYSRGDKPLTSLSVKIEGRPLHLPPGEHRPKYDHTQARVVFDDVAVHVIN
Test: Inhibition of mushroom tyrosinase using L-dopa as substrate assessed as diphenolase activity incubated for 30 mins by spectrophotometric method
measurement.kind: pIC50
pIC50 (log units): -log10 of the concentration in mol/L.

Fill in reported pIC50 for this entry: COc1cc(CC2C(=O)Nc3ccccc32)ccc1O (stereo unspecified)
4.22
